Test system: KRAS PDC tumor spheroids (HUVEC+MSC), viability
assay.protocol: Anticancer human tumor 254851-301-R-J1-PDC patient-derived colon carcinoma cell line growth inhibition [KRAS2]
condition.info: second compound 0.316 µM; first compound 0.0316 µM; stronger effect = lower value
viability, T/C values by entry
All answers are understood in %, so give the number only.

Some solved entries appear below for comparison.
compound	viability, T/C / %
CC(C)n1nc(-c2ccc3oc(N)nc3c2)c2c(N)ncnc21 + COc1cc2nc(C)nc(NC(C)c3cc(N)cc(C(F)(F)F)c3)c2cc1OC1CCOC1	38.7
Cn1nccc1Nc1nccc(-c2cc3c(s2)C(C)(C)N(CCN2CCOCC2)C3=O)n1 + C=CC(=O)N1CCN(c2nc(=O)n(-c3c(C)ccnc3C(C)C)c3nc(-c4c(O)cccc4F)c(F)cc23)C(C)C1	102
CC(C)NCC(C(=O)N1CCN(c2ncnc3c2C(C)CC3O)CC1)c1ccc(Cl)cc1 (centres undefined) + COc1cc2nc(C)nc(NC(C)c3cc(N)cc(C(F)(F)F)c3)c2cc1OC1CCOC1	101
CCNC(=O)CC1N=C(c2ccc(Cl)cc2)c2cc(OC)ccc2-n2c(C)nnc21 (centres undefined) + CNCc1ccccc1-c1csc(C(C)Nc2nc(C)nc3cc(OC)c(OC)cc23)c1	103

Exam item: // Input: CC(C)NCC(C(=O)N1CCN(c2ncnc3c2C(C)CC3O)CC1)c1ccc(Cl)cc1 (centres undefined) + C=CC(=O)N1CCN(c2nc(=O)n(-c3c(C)ccnc3C(C)C)c3nc(-c4c(O)cccc4F)c(F)cc23)C(C)C1 . Output its viability, T/C only.
Marked response: 97.4

Exam item: // Input: CC(=O)OC12COC1CC(O)C1(C)C(=O)C(O)C3=C(C)C(OC(=O)C(O)C(NC(=O)OC(C)(C)C)c4ccccc4)CC(O)(C(OC(=O)c4ccccc4)C21)C3(C)C (centres undefined) + CNCc1ccccc1-c1csc(C(C)Nc2nc(C)nc3cc(OC)c(OC)cc23)c1 . Output its viability, T/C only.
Marked response: 79.9

Exam item: // Input: Cn1nccc1Nc1nccc(-c2cc3c(s2)C(C)(C)N(CCN2CCOCC2)C3=O)n1 + COc1cc2nc(C)nc(NC(C)c3cc(N)cc(C(F)(F)F)c3)c2cc1OC1CCOC1 . Output its viability, T/C only.
Marked response: 98.4

* * *

Tested on: KRAS PDC tumor spheroids (HUVEC+MSC), viability
assay.protocol: Anticancer human tumor 254851-301-R-J1-PDC cell line growth inhibition [KRAS2];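 also: spheroids exposed to compounds for seven days before readout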
condition.info: curve of first compound; second compound 0.316 µM
readout.name: IC50

Some solved entries appear below for comparison.
molecule	measured.value
O=C(c1cc(Cc2n[nH]c(=O)c3ccccc23)ccc1F)N1CCN(C(=O)C2CC2)CC1 + CC1OCC2(CCN(c3cnc(Sc4ccnc(N)c4Cl)c(N)n3)CC2)C1N	> 10 µM
Cn1ncnc1[C@H]1c2n[nH]c(=O)c3cc(F)cc(c23)N[C@@H]1c1ccc(F)cc1 + CC1OCC2(CCN(c3cnc(Sc4ccnc(N)c4Cl)c(N)n3)CC2)C1N	> 0.1 µM

Exam item: // fetch IC50; item: CC1(C)CCC(CN2CCN(c3ccc(C(=O)NS(=O)(=O)c4ccc(NCC5CCOCC5)c([N+](=O)[O-])c4)c(Oc4cnc5[nH]ccc5c4)c3)CC2)=C(c2ccc(Cl)cc2)C1 + CNCc1ccccc1-c1csc(C(C)Nc2nc(C)nc3cc(OC)c(OC)cc23)c1 ; system: KRAS PDC tumor spheroids (HUVEC+MSC), viability
Marked response: > 10 µM
